From: PubChem BioAssay (NCI)

- Test system: PC-3 prostate
- method.summary: NCI-60 one-dose screen, 48 h
- measurement.conditions: 10 µM unless noted
Compounds without any hit were thinned out: in the full panel of roughly 83,000, 20% have a hit. Active and inactive are the calls of the source. The calls were made as follows: active = growth percent below 10; inactive = the rest.
Outcome codes: true for active, false for inactive

compound	classification
Cc1ccccc1-n1c(C)nc2cc(NC(=O)c3ccc(Cl)cc3)ccc2c1=O	false
COc1ccc(/C=C2\CCCC3=C2N=C2SC=NN2C3c2ccc(OC)c(OC)c2)cc1OC (stereo not given)	false
[N-]=[N+]=Nc1ncc(-c2ccc(C(F)(F)F)cc2)c(NC2CCCCCC2)n1	true
Cc1ccc2c(O)c(O)cc(NC(C)CCCN)c2n1 (stereo not given)	false
Oc1ccc(Br)cc1/C=N/NC(=S)NC12CC3CC(CC(C3)C1)C2	true
